system: NCI-H460 lung; assay: NCI tumour cell line growth inhibition, 48 h; in the data active means GI50 below about 0.43 µM; inactive means the rest
Respond with a class label; see true (1) = active, false (0) = inactive

Study these solved cases before continuing.
{"molecule": "CCN1CCN(CCC(=O)Nc2cccc(-n3cc(-c4ccncc4)c(-c4ccc(Cl)c(OC)c4)n3)c2)CC1", "target": "NCI-H460 lung", "assigned-class": "true (1)"}
{"molecule": "CCOC(=O)c1noc2c1CCc1c-2cn(Cc2ccc(OC)cc2)c1-c1cc(OC)c(OC)c(OC)c1", "target": "NCI-H460 lung", "assigned-class": "false (0)"}
{"molecule": "CN1C(=O)C(c2c[nH]c3ccccc23)=C(c2c[nH]c3ccccc23)C1=O", "target": "NCI-H460 lung", "assigned-class": "false (0)"}
{"molecule": "Cc1cc(I)cc(CNCCN(C)C)c1O", "target": "NCI-H460 lung", "assigned-class": "false (0)"}
{"molecule": "NS(=O)(=O)c1ccc(N(/C=C/C(=O)C(F)(F)F)CC(=O)c2ccc(F)cc2)cc1", "target": "NCI-H460 lung", "assigned-class": "false (0)"}

Prompt: Would you mind telling me which call this test gave `O=C([CH-]C(=O)c1ccccc1)c1ccccc1.O=C([CH-]C(=O)c1ccccc1)c1ccccc1.O=C([CH-]C(=O)c1ccccc1)c1ccccc1.[Ga+3]` ?
Response: false (0)

Prompt: Would you mind telling me which call this test gave `Cc1c(Cl)cccc1C(=O)Nc1nc2c(s1)CN(C(=O)Nc1cccc(C(F)(F)F)c1)CC2` ?
Response: true (1)

----------
system: SF-539 CNS; assay: NCI tumour cell line growth inhibition, 48 h
measured-quantity: TGI (µM)
Numbers only here, please. The scale is µM.

{"compound": "Cc1cn([C@@H]2O[C@H](CO[Si](C)(C)C(C)(C)C)[C@]3(O[C@H]3C(=O)NO)[C@H]2O[Si](C)(C)C(C)(C)C)c(=O)[nH]c1=O", "target": "SF-539 CNS", "measured-quantity": "TGI", "test-value": 2.83}
{"compound": "Cc1c(C(Cc2ccccc2N(C)C(=O)/C=C\\C(=O)O)c2c[nH]c3ccccc23)c2ccccc2n1C (centres undefined)", "target": "SF-539 CNS", "measured-quantity": "TGI", "test-value": 31.8}
{"compound": "CC(C)(C)N(Cc1ccccc1)C(=O)/C=C\\S(=O)c1ccccc1 (centres undefined)", "target": "SF-539 CNS", "measured-quantity": "TGI", "test-value": 9.67}
{"compound": "CC(=O)OCC1OC(n2c3c(c(-c4ccc(C)cc4)c(C#N)c2=S)C(=O)CC(C)(C)C3)C(OC(C)=O)C(OC(C)=O)C1OC(C)=O (centres undefined)", "target": "SF-539 CNS", "measured-quantity": "TGI", "test-value": 67.2}
{"compound": "Cc1c(Cl)cccc1C(=O)Nc1nc2c(s1)CN(C(=O)Nc1cccc(C(F)(F)F)c1)CC2", "target": "SF-539 CNS", "measured-quantity": "TGI", "test-value": 0.885}

Kindly review the next compound as well.
Prompt: Query (compound): CC1=C(O)C(=O)C=C2C1=CC=C1[C@@]2(C)CC[C@@]2(C)C3C[C@@H](C)C(=O)[C@@H](O)[C@]3(C)CC[C@]12C (some centres undefined) ; field requested: TGI
Response: 4.33

----------
tested on: MDA-MB-435
Respond with a class label; see label 1 = active, label 0 = inactive

{"compound": "COc1ccc(-c2nc3sc(-c4cc(OC)c(OC)c(OC)c4)nn3c2/C=C2/C(=O)Nc3ccc(F)cc32)cc1", "target": "MDA-MB-435", "assigned-class": "label 0"}
{"compound": "NS(=O)(=O)c1ccc(N(/C=C/C(=O)C(F)(F)F)CC(=O)c2ccc(F)cc2)cc1", "target": "MDA-MB-435", "assigned-class": "label 0"}
{"compound": "CCCCn1c(=O)[nH]c(N)c([C@@H]2c3c([nH]c(=O)n(CCCC)c3=O)Oc3ccc4ccccc4c32)c1=O", "target": "MDA-MB-435", "assigned-class": "label 0"}

Prompt: Would you mind telling me which call this test gave `CN(C)CCNC(=O)c1cc2c3cc(Cl)ccc3[nH]c2c2ncccc12` ?
Response: label 0

Prompt: Would you mind telling me which call this test gave `Nc1c(C(=O)Nc2cccc(Cl)c2)sc2nc3c(cc12)C(=O)CCC3` ?
Response: label 1

Prompt: Would you mind telling me which call this test gave `CC(C)=CCC/C(C)=C/CC/C(C)=C/CSC[C@H](NC(=O)CCCCCN1CCN(C)CC1)C(=O)NC1CCCCCC1` ?
Response: label 0

Prompt: Would you mind telling me which call this test gave `COC(=O)c1c2c(c(C)[n+]([O-])c1C)C(=O)C(NCc1ccc(OC)cc1)=CC2=O` ?
Response: label 0

Prompt: Would you mind telling me which call this test gave CC(C)=CCc1cc2c(cc1O)C1=C(C(=O)C3=C(NCCS3(=O)=O)C1=O)C(C=C(C)C)O2 (stereo not given) ?
Response: label 0

Prompt: Would you mind telling me which call this test gave `CN1CCN(Cc2ccc(NC(=O)c3cncc(C#Cc4cnc(N)c5ncccc45)c3)cc2C(F)(F)F)CC1` ?
Response: label 1

Prompt: Would you mind telling me which call this test gave `Cc1cc(I)cc(CNCCN(C)C)c1O` ?
Response: label 0

Prompt: Would you mind telling me which call this test gave COc1cc(/C=C2\CC3C4CC=C5CC(OC(C)=O)CC[C@]5(C)C4CC[C@]3(C)C2=O)ccc1OCCN1CCCC1 (stereo not given in full) ?
Response: label 0

Prompt: Would you mind telling me which call this test gave `C=CCc1cccc(C=O)c1O` ?
Response: label 0

Prompt: Would you mind telling me which call this test gave `COc1cc2cc(NCc3cccc(Cl)c3)nc(C)c2cc1OC` ?
Response: label 0

Prompt: Would you mind telling me which call this test gave `O=C(/C=C\c1ccc(O)c(O)c1)c1ccccc1O` ?
Response: label 0

Prompt: Would you mind telling me which call this test gave `ClC1=C(Cl)C(Cl)(C2(Cl)C(Cl)=C(Cl)C(Cl)=C2Cl)C(Cl)=C1Cl` ?
Response: label 0

----------
Entries and their measured TGI follow.
system: HS 578T breast; assay: NCI tumour cell line growth inhibition, 48 h

{"smiles-data": "Cc1ccc(N)c(S)c1", "target": "HS 578T breast", "TGI": "> 100 µM"}
{"smiles-data": "CN1CCN(Cc2ccc(NC(=O)c3cncc(C#Cc4cnc(N)c5ncccc45)c3)cc2C(F)(F)F)CC1", "target": "HS 578T breast", "TGI": "1.68 µM"}

Prompt: Query (compound): `O=C1CSCC(=O)Nc2ccccc2N1` ; field requested: TGI
Response: > 100 µM

Prompt: Query (compound): `O=C1Cc2c(-c3cccs3)cc(-c3ccccc3)nc2-c2ccccc2N1` ; field requested: TGI
Response: 17.2 µM

Prompt: Query (compound): `Cc1cccc2cc(/C=C/C(=O)/C=C/c3ccc(Cl)cc3)c(=O)[nH]c12` ; field requested: TGI
Response: > 100 µM

Prompt: Query (compound): `C=CCOC(=O)Cn1cnc2c(N)ncnc21` ; field requested: TGI
Response: > 100 µM

Prompt: Query (compound): `CNC(=O)Oc1cc(C(C)C)ccc1Sc1ccc(C(C)C)cc1OC(=O)NC` ; field requested: TGI
Response: 35.6 µM

Prompt: Query (compound): `CCCCn1c(=O)[nH]c(N)c([C@@H]2c3c([nH]c(=O)n(CCCC)c3=O)Oc3ccc4ccccc4c32)c1=O` ; field requested: TGI
Response: 37.1 µM

Prompt: Query (compound): `Brc1ccc(C2=NCSC(c3ccc(Br)cc3)=N2)cc1` ; field requested: TGI
Response: > 100 µM

Prompt: Query (compound): `COC(=O)N[C@H]1CCc2cc(OC)c(OC)c(OC)c2-c2ccc(SC)c(=O)cc21` ; field requested: TGI
Response: > 100 µM

Prompt: Query (compound): `O=c1[nH]c2ccccc2n1C1CCNCC1` ; field requested: TGI
Response: > 100 µM

----------
Entries and their measured TGI follow.
system: HL-60(TB) leukemia; experiment: NCI tumour cell line growth inhibition, 48 h

{"compound": "O=C1c2ccccc2-c2nnc3c(c21)Cc1ccccc1C3", "test-value": "> 10 µM"}
{"compound": "COc1ccc2c(c1)[C@@H](NC(C)=O)CCc1cc(OC)c(OC)c(OC)c1-2", "test-value": "< 0.0142 µM"}
{"compound": "O=C1C(Cl)C(c2cccc([N+](=O)[O-])c2)N1n1cnc2ccccc2c1=O (centres undefined)", "test-value": "> 100 µM"}
{"compound": "COc1cc([C@@H]2c3cc4c(cc3[C@H](OC3OC5COC(c6ccco6)OC5C(O)C3O)C3COC(=O)[C@@H]32)OCO4)cc(OC)c1OC (some centres undefined)", "test-value": "> 100 µM"}
{"compound": "Cc1cccc(Nc2nc3ccccc3nc2NS(=O)(=O)c2ccc(N)cc2)c1", "test-value": "> 100 µM"}

Prompt: What reported TGI corresponds to CC(C)[Si](OC12CCC(CC1O)CC2CO)(C(C)C)C(C)C (centres undefined) on HL-60(TB) leukemia?
Response: 6.73 µM

Prompt: What reported TGI corresponds to `O=C(NCc1cn(Cc2cccc(Oc3ccccc3)c2)nn1)c1cccnc1Nc1ccc(F)cc1` on HL-60(TB) leukemia?
Response: > 100 µM

meta.source: PubChem BioAssay (NCI)
